These measurements were taken from patent US20180171001A1.

neutralization IC50 reference
- tested-on: Env of HIV-1 strain R1166.c1 (HIV-1)
- test-protocol: cell-based or functional assay
endpoint-name: neutralization IC50 (µg/mL)

| binder | endpoint-name | unit-label | readout-qualifier | result-number |
| --- | --- | --- | --- | --- |
| γ52κ11 (antibody, V domains shown) VH: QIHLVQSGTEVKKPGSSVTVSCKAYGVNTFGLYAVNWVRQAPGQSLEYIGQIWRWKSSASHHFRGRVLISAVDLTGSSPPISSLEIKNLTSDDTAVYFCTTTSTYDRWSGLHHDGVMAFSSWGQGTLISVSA VL: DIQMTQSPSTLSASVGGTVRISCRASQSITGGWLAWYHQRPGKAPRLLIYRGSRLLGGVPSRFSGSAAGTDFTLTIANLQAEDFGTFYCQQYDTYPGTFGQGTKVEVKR | neutralization IC50 | µg/mL | = | 1.16 |
| γ23κ5 (antibody, V domains shown) VH: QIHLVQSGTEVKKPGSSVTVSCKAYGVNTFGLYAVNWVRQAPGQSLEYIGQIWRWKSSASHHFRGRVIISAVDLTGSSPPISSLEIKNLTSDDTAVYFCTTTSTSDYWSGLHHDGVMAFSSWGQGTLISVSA VL: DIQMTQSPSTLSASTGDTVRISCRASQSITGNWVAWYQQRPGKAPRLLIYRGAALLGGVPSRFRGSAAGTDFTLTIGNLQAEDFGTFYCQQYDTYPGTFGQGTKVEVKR | neutralization IC50 | µg/mL | = | 1.07 |
| γ23κ11 (antibody, V domains shown) VH: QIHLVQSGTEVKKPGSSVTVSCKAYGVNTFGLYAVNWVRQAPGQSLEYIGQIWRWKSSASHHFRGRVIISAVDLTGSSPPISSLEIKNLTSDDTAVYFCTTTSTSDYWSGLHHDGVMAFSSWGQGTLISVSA VL: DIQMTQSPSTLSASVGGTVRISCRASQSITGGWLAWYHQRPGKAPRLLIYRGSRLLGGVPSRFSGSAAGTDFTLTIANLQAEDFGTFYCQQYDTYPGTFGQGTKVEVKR | neutralization IC50 | µg/mL | = | 1.61 |
| γ23κ18 (antibody, V domains shown) VH: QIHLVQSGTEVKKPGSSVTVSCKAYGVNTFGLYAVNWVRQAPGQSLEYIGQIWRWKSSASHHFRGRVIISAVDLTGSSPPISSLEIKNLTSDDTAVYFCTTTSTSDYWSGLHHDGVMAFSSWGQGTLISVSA VL: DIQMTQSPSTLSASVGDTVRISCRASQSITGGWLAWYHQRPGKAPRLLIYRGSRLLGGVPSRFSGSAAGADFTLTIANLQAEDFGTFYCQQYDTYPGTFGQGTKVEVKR | neutralization IC50 | µg/mL | = | 0.708 |
| 8ANC3044 (antibody, V domains shown) VH: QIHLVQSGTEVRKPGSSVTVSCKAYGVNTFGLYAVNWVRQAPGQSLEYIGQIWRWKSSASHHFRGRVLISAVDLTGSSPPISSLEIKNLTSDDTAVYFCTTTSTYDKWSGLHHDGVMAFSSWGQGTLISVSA VL: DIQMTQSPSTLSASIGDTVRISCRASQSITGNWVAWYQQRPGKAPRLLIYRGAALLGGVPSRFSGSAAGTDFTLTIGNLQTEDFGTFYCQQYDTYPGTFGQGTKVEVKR | neutralization IC50 | µg/mL | = | 2.38 |
| γ59κ11 (antibody, V domains shown) VH: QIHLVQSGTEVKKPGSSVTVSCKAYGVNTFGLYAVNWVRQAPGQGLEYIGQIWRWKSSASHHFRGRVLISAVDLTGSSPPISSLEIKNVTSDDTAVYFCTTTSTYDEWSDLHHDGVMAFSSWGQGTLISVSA VL: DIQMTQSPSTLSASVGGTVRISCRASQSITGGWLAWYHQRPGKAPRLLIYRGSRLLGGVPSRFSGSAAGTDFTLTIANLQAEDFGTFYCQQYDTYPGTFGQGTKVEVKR | neutralization IC50 | µg/mL | = | 12.6 |
| γ44κ61 (antibody, V domains shown) VH: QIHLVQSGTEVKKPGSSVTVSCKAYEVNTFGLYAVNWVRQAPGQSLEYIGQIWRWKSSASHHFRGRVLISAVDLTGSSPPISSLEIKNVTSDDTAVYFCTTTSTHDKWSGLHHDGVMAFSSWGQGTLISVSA VL: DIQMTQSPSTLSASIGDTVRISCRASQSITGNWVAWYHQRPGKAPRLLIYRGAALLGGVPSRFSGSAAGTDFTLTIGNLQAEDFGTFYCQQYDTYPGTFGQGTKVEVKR | neutralization IC50 | µg/mL | > | 15 |
| γ22κ11 (antibody, V domains shown) VH: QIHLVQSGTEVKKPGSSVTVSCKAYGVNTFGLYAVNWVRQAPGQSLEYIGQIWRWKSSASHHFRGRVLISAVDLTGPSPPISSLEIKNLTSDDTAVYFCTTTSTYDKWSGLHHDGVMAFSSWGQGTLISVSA VL: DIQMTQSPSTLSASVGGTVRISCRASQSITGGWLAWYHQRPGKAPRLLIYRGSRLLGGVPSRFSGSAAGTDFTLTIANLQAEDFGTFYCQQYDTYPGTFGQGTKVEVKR | neutralization IC50 | µg/mL | > | 15 |
| γ3κ18 (antibody, V domains shown) VH: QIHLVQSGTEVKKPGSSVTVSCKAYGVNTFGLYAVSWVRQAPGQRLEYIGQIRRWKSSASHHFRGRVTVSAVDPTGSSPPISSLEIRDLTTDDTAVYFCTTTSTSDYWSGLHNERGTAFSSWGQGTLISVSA VL: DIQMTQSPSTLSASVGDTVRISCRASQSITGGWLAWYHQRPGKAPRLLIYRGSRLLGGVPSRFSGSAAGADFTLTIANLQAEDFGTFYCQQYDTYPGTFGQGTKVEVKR | neutralization IC50 | µg/mL | = | 0.578 |
| γ20κ3 (antibody, V domains shown) VH: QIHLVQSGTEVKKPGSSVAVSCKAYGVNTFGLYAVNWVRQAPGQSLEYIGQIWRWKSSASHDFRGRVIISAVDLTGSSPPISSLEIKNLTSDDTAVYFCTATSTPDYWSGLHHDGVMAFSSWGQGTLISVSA VL: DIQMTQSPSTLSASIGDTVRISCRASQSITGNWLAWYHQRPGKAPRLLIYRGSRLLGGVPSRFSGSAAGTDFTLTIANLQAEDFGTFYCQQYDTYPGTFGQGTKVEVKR | neutralization IC50 | µg/mL | > | 15 |
